molecular target: T1, MUC1 on HCT116/MUC1 cells (UniProt P15941 24-1255, limits assumed); assay: FACS titration, HCT116/MUC1 cells, antibody at 31.25 nM
T1 construct: whole, on cells; also called MUC1 overexpressed cell line
T1 sequence (P15941 24-1255 limits assumed): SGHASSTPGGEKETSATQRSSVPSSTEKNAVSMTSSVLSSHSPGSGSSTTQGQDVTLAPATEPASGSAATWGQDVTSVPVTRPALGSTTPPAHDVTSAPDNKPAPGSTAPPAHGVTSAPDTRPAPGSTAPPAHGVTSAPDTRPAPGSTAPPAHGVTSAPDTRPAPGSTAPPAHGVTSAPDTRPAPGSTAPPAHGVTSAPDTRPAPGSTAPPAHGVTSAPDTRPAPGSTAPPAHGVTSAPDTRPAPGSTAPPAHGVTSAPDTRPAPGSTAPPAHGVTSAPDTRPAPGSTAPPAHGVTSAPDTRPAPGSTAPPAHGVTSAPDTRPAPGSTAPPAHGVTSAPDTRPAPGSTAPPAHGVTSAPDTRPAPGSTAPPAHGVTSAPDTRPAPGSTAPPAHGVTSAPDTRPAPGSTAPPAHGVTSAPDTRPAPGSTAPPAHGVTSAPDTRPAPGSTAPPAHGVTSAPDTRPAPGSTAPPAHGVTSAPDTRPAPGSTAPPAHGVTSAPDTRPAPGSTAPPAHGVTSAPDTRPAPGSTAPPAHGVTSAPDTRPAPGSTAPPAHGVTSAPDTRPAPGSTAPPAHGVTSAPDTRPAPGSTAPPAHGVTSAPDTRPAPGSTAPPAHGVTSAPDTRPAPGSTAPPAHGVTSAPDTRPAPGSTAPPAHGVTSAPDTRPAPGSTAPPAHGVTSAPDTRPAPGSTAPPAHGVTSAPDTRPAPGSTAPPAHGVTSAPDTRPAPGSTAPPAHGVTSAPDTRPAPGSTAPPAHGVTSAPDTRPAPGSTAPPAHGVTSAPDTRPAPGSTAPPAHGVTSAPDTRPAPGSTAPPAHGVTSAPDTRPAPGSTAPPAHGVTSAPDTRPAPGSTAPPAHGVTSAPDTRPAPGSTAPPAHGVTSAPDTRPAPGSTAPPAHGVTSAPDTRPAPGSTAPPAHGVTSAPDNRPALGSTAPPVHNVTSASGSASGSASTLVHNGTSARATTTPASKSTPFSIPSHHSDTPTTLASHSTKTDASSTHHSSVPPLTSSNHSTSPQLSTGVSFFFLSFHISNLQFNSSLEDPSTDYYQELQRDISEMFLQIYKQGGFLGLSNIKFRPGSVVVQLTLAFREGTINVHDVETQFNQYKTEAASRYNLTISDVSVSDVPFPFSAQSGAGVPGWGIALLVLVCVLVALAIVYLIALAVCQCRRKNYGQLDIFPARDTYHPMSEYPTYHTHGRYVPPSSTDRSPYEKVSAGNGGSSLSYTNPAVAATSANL

[
  {
    "binder": "VH4 + VL1 (antibody, V domains shown, Humanized IgG expressed in HEK293; also called humanized antibody VH4+VL1) VH: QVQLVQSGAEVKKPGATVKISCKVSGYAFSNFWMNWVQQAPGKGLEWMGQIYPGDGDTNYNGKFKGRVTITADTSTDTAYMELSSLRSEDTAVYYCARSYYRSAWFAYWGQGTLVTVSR VL: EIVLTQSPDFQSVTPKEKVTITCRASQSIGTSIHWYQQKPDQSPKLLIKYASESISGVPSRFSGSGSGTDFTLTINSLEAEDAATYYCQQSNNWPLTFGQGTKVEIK",
    "geometric mean": 113
  }
]
